Source: paper PMC5342526

Target: ERK1 (Homo sapiens, UniProt P27361)
Sequence (P27361 whole entry, species assumed): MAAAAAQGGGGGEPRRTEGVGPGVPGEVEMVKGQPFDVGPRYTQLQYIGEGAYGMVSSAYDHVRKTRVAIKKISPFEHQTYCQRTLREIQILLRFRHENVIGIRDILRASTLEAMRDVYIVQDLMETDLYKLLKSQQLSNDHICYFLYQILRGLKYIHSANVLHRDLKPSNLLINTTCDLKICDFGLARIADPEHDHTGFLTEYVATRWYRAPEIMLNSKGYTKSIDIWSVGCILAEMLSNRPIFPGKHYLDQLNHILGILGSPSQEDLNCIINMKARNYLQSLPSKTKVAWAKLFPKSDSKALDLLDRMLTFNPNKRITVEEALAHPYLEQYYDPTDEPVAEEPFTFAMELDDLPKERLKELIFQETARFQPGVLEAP
RESULT TYPE: IC50

[[record]]
compound = "CS(=O)(=O)O.Cn1cc(C2=C(c3cn(CCCSC(=N)N)c4ccccc34)C(=O)NC2=O)c2ccccc21 [Bisindolylmaleimide IX]"
test_value = "> 45 µM"


---

Biological target: B-Raf (Homo sapiens)
Sequence (P15056 whole entry, species assumed): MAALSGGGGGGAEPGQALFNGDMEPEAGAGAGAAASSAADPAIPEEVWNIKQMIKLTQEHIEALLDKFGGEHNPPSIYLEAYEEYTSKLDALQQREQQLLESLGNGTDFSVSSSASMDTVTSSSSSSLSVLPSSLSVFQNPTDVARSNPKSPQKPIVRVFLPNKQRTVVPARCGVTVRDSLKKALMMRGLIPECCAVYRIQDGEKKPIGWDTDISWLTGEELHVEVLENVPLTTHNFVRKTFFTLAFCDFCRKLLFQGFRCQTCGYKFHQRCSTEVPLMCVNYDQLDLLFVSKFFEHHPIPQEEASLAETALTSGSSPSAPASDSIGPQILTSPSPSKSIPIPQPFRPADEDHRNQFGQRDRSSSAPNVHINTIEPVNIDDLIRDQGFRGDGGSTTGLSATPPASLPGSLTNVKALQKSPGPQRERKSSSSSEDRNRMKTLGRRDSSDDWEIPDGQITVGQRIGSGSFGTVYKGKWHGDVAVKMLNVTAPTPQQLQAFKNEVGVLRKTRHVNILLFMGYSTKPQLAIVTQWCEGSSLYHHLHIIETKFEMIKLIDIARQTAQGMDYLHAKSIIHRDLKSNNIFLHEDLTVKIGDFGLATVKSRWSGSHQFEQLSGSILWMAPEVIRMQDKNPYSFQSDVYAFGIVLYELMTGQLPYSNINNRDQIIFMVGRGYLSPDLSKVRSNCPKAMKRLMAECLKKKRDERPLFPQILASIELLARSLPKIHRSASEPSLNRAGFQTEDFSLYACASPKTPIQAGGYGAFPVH
RESULT TYPE: IC50 (µM)

[[record]]
molecule = "CS(=O)(=O)O.Cn1cc(C2=C(c3cn(CCCSC(=N)N)c4ccccc34)C(=O)NC2=O)c2ccccc21 [Bisindolylmaleimide IX]"
test_value = 1.14


---

System: BCR-ABL BaF3 cells
Assay: cells
Conditions: Mus musculus, BaF3, 24 h, read-out: IC50, cell survival
RESULT TYPE: IC50

[[record]]
compound = "CS(=O)(=O)O.Cn1cc(C2=C(c3cn(CCCSC(=N)N)c4ccccc34)C(=O)NC2=O)c2ccccc21 [Bisindolylmaleimide IX]"
test_value = "3.26 µM"

